All values here come from PubChem BioAssay (NCI).

# System: HL-60(TB) leukemia
# ASSAY_EXPLANATION: NCI-60 one-dose screen, 48 h (100 = growth as untreated, 0 = no growth, -100 = all killed)
# STUDY_CONDITIONS: 10 µM unless noted
The panel holds about 83,000 compounds, 20% with a hit somewhere; the sample as a whole holds those more often.
Where growth equals or exceeds 50%, the correct label is true (1); where it does not, the label is false (0).

Query: Does growth meet or surpass 50% for COc1ccccc1/C=C/C(=O)/C=C/c1ccccc1O ?
Reply: false (0)

Query: Please indicate if the recorded growth for CCOC(=O)c1nnn(C(Cc2ccccc2Cl)C(=O)OCC)c1C (stereo unspecified) meets or exceeds 50%.
Reply: true (1)

Query: Check if growth >= 50% (inclusive). Item: O=C1C(Cl)=C(Nc2ccc(Nc3ccccc3)c(NC3=C(Cl)C(=O)c4ccccc4C3=O)c2)C(=O)c2ccccc21
Reply: true (1)

Query: State whether the measured growth reaches 50%, counting equality as reaching it, for C=CC[N+]1(CCO)CCN=C1CCCCCCCCCCCCC (stereo unspecified)
Reply: false (0)

Query: Form field: growth at least 50%? Entry: O=C(Nc1nc2ccc(F)cc2s1)c1cccnc1Nc1ccc(Cl)cc1
Reply: false (0)

Query: hey, is growth for this one >= 50%? O=C1OCC2=C1C(c1cccc(Cl)c1)c1cc3c(cc1N2CCO)OCCO3 (stereo unspecified)
Reply: false (0)

Query: Could you verify whether the entry CCOC(=O)C(CCC(C)C)C(=O)OCC shows growth of no less than 50%?
Reply: true (1)

Query: Tell me whether growth is at least 50% here: O=C(Nc1ccc(Cl)cc1)c1cc2ccccc2cc1OP(=O)(O)O
Reply: false (0)

Query: Exam item: decide whether the reported growth for O=c1cc(-c2ccccc2)oc2c(O)c(O)ccc12 is at least 50%.
Reply: true (1)

Query: Check this molecule for growth at or above 50%: CCCC1=NNC(=O)C1
Reply: true (1)

* * *

# Tested on: HL-60(TB) leukemia
# ASSAY_EXPLANATION: NCI-60 one-dose screen, 48 h (100 = growth as untreated, 0 = no growth, -100 = all killed)
# STUDY_CONDITIONS: 10 µM unless noted
# Protocol: Growth inhibition of the HL-60(TB) human tumor cell line is measured as a screen for anti-cancer activity. Cells are grown in 96 well plates and exposed to the test compound for 48 hours. Compounds are tested at a single concentration, which is 10^-5 M for most compounds. The reported endpoint is percent growth (GI% or GIPRCNT), where numbers from 0 - 100% represent growth inhibition, and numbers from -100% - 0 represent cell death. For example, a value of 40 represents 60% growth inhibition. […]
This is part of a sample that, as a whole, favours compounds with a hit. Of some 83,000 tested, about 20% had one in any assay.
OBSERVATION_TYPE: growth (%)
Just the number in %, nothing appended.

Query: # lookup: growth of COc1ccc(S(=O)(=O)ON=C2C=C(C)C(=O)C(C)=C2)cc1
Reply: 43.7

Query: // lookup growth for O=C1/C(=C/c2cccs2)SC(=S)N1CCCN1CCOCC1
Reply: 90.4

Query: # get_value(readout='growth', item= NC(N)=Nc1ccc(S(=O)(=O)O)cc1 )
Reply: 108

Query: Return reported growth; argument: CCOC(=O)C(CCC#N)(CCC#N)C(=O)OCC
Reply: 103

Query: Param item = O=C1C=CC2(NN=C(c3ccccc3)N2c2ccccc2)c2cccc(O)c21 (stereo unspecified) ; retrieve measured growth.
Reply: 29.8

Query: Which value of growth has been reported for O=c1[nH]c(=S)[nH]c(=O)n1Cc1cccc2ccccc12 in the records?
Reply: 101

Query: What growth value was documented for this molecule, CSc1nc(N)nc2c1ncn2C ?
Reply: 75.8

Query: Fill in: growth of CC(=O)/C(=C/c1ccc(-c2ccccc2)cc1)C(=O)c1ccccc1 is ___
Reply: 56.3

Query: Item CS(=O)(=O)Nc1cc(-c2ccc3ncnc(Nc4c(Cl)ccc5c4OCO5)c3c2)cnc1Cl has what recorded growth?
Reply: -4.02

Query: Given CC(C)(C)n1cc(-c2ccnc(NCCCNS(=O)(=O)c3ccc(F)cc3)c2)c(-c2cccc(F)c2)n1 , state its recorded growth.
Reply: 38.2

Query: Give the measured growth of Cc1ccc(Nc2ccc(Nc3ccc(C)cc3S(=O)(=O)O)c3c2C(=O)c2ccccc2C3=O)c(S(=O)(=O)O)c1 .
Reply: 99.4

* * *

# Tested on: HL-60(TB) leukemia
# ASSAY_EXPLANATION: NCI-60 one-dose screen, 48 h (100 = growth as untreated, 0 = no growth, -100 = all killed)
# STUDY_CONDITIONS: 10 µM unless noted
About 83,000 compounds went through this panel and 20% of them were active in at least one assay; those are over-represented in the sample as a whole.
Please enter 1 where growth is greater than or equal to 90%, and 0 where it is lower.

Query: Hi, just wondering whether O=c1[nH]c([C@@H]2CCCN2)nc2c1oc1ccc(Cl)cc12 shows growth of 90% or higher.
Reply: 1

Query: Is the recorded value of growth equal to or greater than 90% for this compound? CC(C)N1CN2C(=S)NC3C2N(C1)C(=S)N3C (centres undefined)
Reply: 1

Query: Is it the case that CCOc1ccc(/C=N/N=C(N)N)cc1OCC has growth reaching or exceeding 90%?
Reply: 0

Query: Given Cn1c2c(Cl)c(Cl)ccc2c2ccn3c(=O)c4ccccc4nc3c21 , state whether its growth is at least 90%.
Reply: 1

Query: Decide: is the reported value of growth for N#Cc1cccc(F)c1 equal to or greater than 90%?
Reply: 0

Query: Identify whether the reported growth of the following compound is 90% or greater: CO/N=C(/C)c1ccc(NC(=O)CSc2nnc(-c3ccncc3)n2-c2ccccc2)cc1
Reply: 0

Query: Does O=C(O)c1ccc(=O)[nH]n1 have a reported growth of at least 90%?
Reply: 1

Query: State whether the measured growth reaches 90%, counting equality as reaching it, for CSc1oc(C)nc1[P+](c1ccccc1)(c1ccccc1)c1ccccc1
Reply: 0

Query: State whether the measured growth reaches 90%, counting equality as reaching it, for N#CC1=C(Nc2ccccc2Cl)SC(c2ccccc2O)NC1=O (centres undefined)
Reply: 1

Query: Is growth at least 90%? Consider O=C(/C=C/c1cccc2ccccc12)c1ccc(NC(=O)c2ccccc2CN2C(=O)c3ccccc3C2=O)cc1
Reply: 0

Query: Check if growth >= 90% (inclusive). Item: c1cc(CNCCNCc2ccncc2)ccn1
Reply: 0

Query: In plain terms: is recorded growth at least 90% for O=C(NC1C(O)OC(CO)C(O)C1O)NS(=O)(=O)c1ccc(Cl)cc1 (centres undefined) ?
Reply: 1

Query: Could you please find out whether Oc1cccc(-c2nc3sccn3c2-c2ccncn2)c1 has growth that meets 90% or exceeds it?
Reply: 1

Query: Identify whether the reported growth of the following compound is 90% or greater: O=C(/C=C/c1ccco1)c1ccc(Nc2nc(Nc3ccc(F)cc3)nc(Nc3ccc(Cl)cc3)n2)cc1
Reply: 0

Query: Assess whether reported growth for Cc1ccc(C2C=C(c3ccc(Cl)cc3)N=C3SC=CN32)c(Br)c1 (centres undefined) sits at 90% or higher.
Reply: 1

Query: Entry NC(=O)CN1C(=O)c2ccccc2C1=O : is its growth no less than 90%?
Reply: 1

Query: Please check the record O=C(Nc1nc2ccccc2s1)c1ccc(F)cc1 and state if its growth is at or above 90%.
Reply: 1

Query: Given c1ncc2[nH]cnc2n1 , state whether its growth is at least 90%.
Reply: 0

Query: Could you please find out whether CCN(CC)C(=S)SC(SC(=S)N(CC)CC)C(=O)c1nnn(-c2ccc([N+](=O)[O-])cc2)c1C has growth that meets 90% or exceeds it?
Reply: 0

Query: Check this compound for growth at or above 90%: CCCCCCCCCCCCCCCCCCOc1ccccc1N
Reply: 0

Query: State whether the measured growth reaches 90%, counting equality as reaching it, for O=C(Cn1c(=O)ccn(CCCCCCCCOc2ccc(Br)cc2)c1=O)Nc1ccc(Oc2ccc(Cl)cc2)cc1
Reply: 0

Query: Check this compound for growth at or above 90%: O=c1oc2ccc(Cl)cc2c(=O)n1-c1cc(C(F)(F)F)cc(C(F)(F)F)c1
Reply: 0

* * *

# System: HL-60(TB) leukemia
# ASSAY_EXPLANATION: NCI-60 one-dose screen, 48 h
# STUDY_CONDITIONS: 10 µM unless noted
About 83,000 compounds went through this panel and 20% of them were active in at least one assay; those are over-represented in the sample as a whole. The source made the active and inactive calls. The calls were made as follows: active = growth percent below 10; inactive = the rest.
Please answer using one outcome listed in yes (1) for active, no (0) for inactive

Query: For this molecule, state the assay outcome: CCN(CC)CCOc1nc2cc(OC)c(OC)cc2c2c1-c1ccc(OC)cc1C2=O
Reply: no (0)

Query: Dear colleague, could you share the recorded outcome for COc1cc2c(cc1OCCCCCn1c3ccccc3c3ccccc31)N=C[C@@H]1CCCN1C2=O when you have a moment?
Reply: yes (1)

Query: In this assay, the call recorded for CC(C)(C)c1cc(-c2nc3ccc(N4CCN(S(C)(=O)=O)CC4)cc3[nH]2)cc(C(C)(C)C)c1O was what?
Reply: no (0)

Query: Write down the call the test reported for this molecule. Item: COC(=O)/C(CCC=C(C)C)=C1\[C@@H](OC(C)=O)C[C@@]2(C)[C@H]1C[C@@H](O)[C@H]1[C@@]3(C)CC[C@H](NC(=O)c4cnccn4)[C@@H](C)[C@@H]3CC[C@@]12C
Reply: no (0)

Query: Look up the recorded call for CCOC(=O)N/N=C/c1ccc(OC)c(OC)c1 in this test.
Reply: no (0)

Query: What call does the record list for Cc1n[nH]c(C)c1N=Nc1cccc2c1C(=O)c1ccccc1C2=O ?
Reply: no (0)

Query: Look up the recorded call for COc1ccc(-c2nc3sc(-c4ccc(OC)cc4)c(-c4ccc(OC)cc4)n3c2/C=C/c2ccc(C(C)C)cc2)cc1 in this test.
Reply: no (0)

Query: Please let me know the test result on file for N=C(N)c1ccc(-c2ccc(-c3cc(Cl)cc(Cl)c3)o2)o1 .
Reply: yes (1)

Query: Test call, this molecule: CCCCCCCCCCCC[n+]1ccc(C(N)=O)cc1
Reply: yes (1)

Query: I'd appreciate the recorded outcome for O=C1N(C2CCCCC2)C(=O)N1C1CCCCC1 from this test.
Reply: yes (1)

Query: Tell me the recorded outcome of this test for CC(C)(C)n1cc(-c2ccnc(NCCNS(=O)(=O)c3ccc(C(F)(F)F)cc3)c2)c(-c2cccc(O)c2)n1 .
Reply: no (0)

Query: Called result for c1ccc(-c2nc(N3CCNCC3)c3nc(-c4ccccc4)oc3n2)cc1
Reply: yes (1)

Query: How was Cc1ccc2oc(=O)cc(-c3nc4ccc([N+](=O)[O-])cc4[nH]3)c2c1 classified in this test?
Reply: no (0)

Query: Outcome? COC(=O)c1cccc(NC(=O)c2ccc(-c3cccc(N)c3)o2)c1
Reply: no (0)

Query: Hi team, can someone confirm the assay call for O=C(Nc1nc2cc(C(=O)N3CCN(C(c4ccccc4)c4ccccc4)CC3)ccc2o1)c1ccc(NC2CCCCC2)c([N+](=O)[O-])c1 ?
Reply: no (0)

Query: For Nc1c(C(=O)Nc2cccc(F)c2)sc2nc3c(cc12)C(=O)CCC3 , what call appears in the results of this test?
Reply: no (0)

Query: Lab log entry: CCCCCn1sc(=O)n(Cc2ccc(CNC(=O)OCc3ccc4cccc(O)c4n3)cc2)c1=O — outcome as called in the assay?
Reply: yes (1)

Query: Each molecule tested received a call. Report the one for CCCCNC(=O)CC1=C(C)/C(=C/c2[nH]c(-c3ccc[nH]3)cc2OC)N=C1C .
Reply: no (0)

Query: Entry CCOc1ccc(Nc2nc3c(s2)C(=O)c2ccccc2C3=O)cc1 : call = ?
Reply: no (0)

Query: # outcome recorded in this test, key = N#CCCN1C(=O)CCC1C(=O)O (stereo not drawn)
Reply: no (0)

Query: What outcome does the record of this test show for CC(C)C1=C(O)C2=C(C(=O)C1=O)[C@@]1(C)CCCC(C)(C)[C@@H]1CC2 ?
Reply: no (0)

Query: GET /call?item= C=C(C)[C@@H]1CC[C@]2(C(=O)O)CC[C@]3(C)[C@H](CC[C@@H]4[C@@]5(C)C/C(=C/c6ccc(OC)cc6)C(=O)C(C)(C)[C@@H]5CC[C@]43C)[C@@H]12 returns the recorded outcome of this test.
Reply: yes (1)

Query: Per the records of this test, what outcome belongs to CCCC(C)OCC(=O)O (stereo not drawn) ?
Reply: no (0)

Query: Please state the recorded outcome for this molecule: COc1cc(CNCCN2C(=O)c3ccc4c5c(ccc(c35)C2=O)C(=O)N(CCNCc2cc(OC)c(OC)c(OC)c2)C4=O)cc(OC)c1OC
Reply: yes (1)

Query: Test call, this molecule: COc1cc(OC)cc(-c2n[nH]nc2-c2ccc3c(c2)OCO3)c1
Reply: yes (1)

Query: Call for entry O=S(=O)(Nc1ccc(NS(=O)(=O)c2ccccc2)c(Cl)c1)c1ccccc1 :
Reply: no (0)

Query: Please let me know the test result on file for CCOC(=O)CNC(=O)CCCCSc1ncnc2nc[nH]c12 .
Reply: no (0)

Query: What was the test verdict on C=CCNc1nnc(C)s1 ?
Reply: no (0)

Query: Look up the recorded call for COc1ccc(-c2nn(-c3cccc(NC(=O)c4ccc(Cl)c(Cl)c4)c3)cc2-c2ccncc2)cc1Cl in this test.
Reply: no (0)

Query: Could you check what this test reported for O=S(=O)(NCCCNc1nccc(-c2c(-c3cccc(O)c3)nc3occn23)n1)c1ccc(F)cc1 ?
Reply: no (0)

Query: Field: outcome | Entry: COc1ccc2nc3ccccc3c(NCCNCCO)c2c1
Reply: yes (1)

Query: Which outcome did this test record for the molecule CC(=O)OC[C@]12CCC(C)(C)C[C@H]1[C@@]1(O)[C@H](O)C[C@@H]3[C@@]4(C)CCCNC(C)(C)[C@@H]4CC[C@@]3(C)[C@]1(C)CC2 ?
Reply: no (0)

Query: Please let me know the test result on file for O=C(c1ccccc1)C(CN1CCCCC1)c1ccccc1 (stereo not drawn) .
Reply: yes (1)

Query: Identify the outcome logged in this assay for the molecule shown: C=C1c2c(C)nn(-c3ccc(OC)cc3)c2N(C)C23C[C@@H]1C1(C)c4c(C)nn(-c5ccc(OC)cc5)c4N(C)C(C)(C[C@H]12)C3 (stereo partly drawn)
Reply: yes (1)

Query: # lookup: test call for O=C(/C=C/CN1CCOCC1)Nc1cc2c(Nc3ccc(F)c(Cl)c3F)ncnc2cc1OCCOC(F)F
Reply: no (0)

Query: In this assay, the call recorded for COc1c(Cl)cc(Cl)c2ccc(C=C3C(=O)NC(=S)NC3=O)nc12 was what?
Reply: no (0)

Query: Record lookup: outcome of this test for Oc1ccc(N=Nc2ccc(Br)cc2)c(O)c1 ?
Reply: yes (1)

Query: // return assay outcome for CCCCOc1ccc(NC(=O)n2nc(N=NN(C)C)c3ccc(Cl)cc32)cc1
Reply: no (0)
